- systemTested: L7Ae (Archaeoglobus fulgidus, UniProt O29494 1-119)
- Sequence (O29494 whole entry): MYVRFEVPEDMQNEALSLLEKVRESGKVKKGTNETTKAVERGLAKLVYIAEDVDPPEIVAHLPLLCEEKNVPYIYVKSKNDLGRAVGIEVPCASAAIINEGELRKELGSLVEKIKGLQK
- procedureText: SPR
propertyLabel: pKd
One number for each entry, as −log10 of the molar value.

// lookup pKd for GGAUCUGGGGCGUGAUCCGAAAGGUGACCCGGAUCC (structured_RNA) [K-turn]
8.80
